Biological target: WT Nav1.5-α subunits (Homo sapiens)
Construct: expressed in transfected cells; host or cells: HEK293 (transient transfection)
Sequence (Q14524 whole entry): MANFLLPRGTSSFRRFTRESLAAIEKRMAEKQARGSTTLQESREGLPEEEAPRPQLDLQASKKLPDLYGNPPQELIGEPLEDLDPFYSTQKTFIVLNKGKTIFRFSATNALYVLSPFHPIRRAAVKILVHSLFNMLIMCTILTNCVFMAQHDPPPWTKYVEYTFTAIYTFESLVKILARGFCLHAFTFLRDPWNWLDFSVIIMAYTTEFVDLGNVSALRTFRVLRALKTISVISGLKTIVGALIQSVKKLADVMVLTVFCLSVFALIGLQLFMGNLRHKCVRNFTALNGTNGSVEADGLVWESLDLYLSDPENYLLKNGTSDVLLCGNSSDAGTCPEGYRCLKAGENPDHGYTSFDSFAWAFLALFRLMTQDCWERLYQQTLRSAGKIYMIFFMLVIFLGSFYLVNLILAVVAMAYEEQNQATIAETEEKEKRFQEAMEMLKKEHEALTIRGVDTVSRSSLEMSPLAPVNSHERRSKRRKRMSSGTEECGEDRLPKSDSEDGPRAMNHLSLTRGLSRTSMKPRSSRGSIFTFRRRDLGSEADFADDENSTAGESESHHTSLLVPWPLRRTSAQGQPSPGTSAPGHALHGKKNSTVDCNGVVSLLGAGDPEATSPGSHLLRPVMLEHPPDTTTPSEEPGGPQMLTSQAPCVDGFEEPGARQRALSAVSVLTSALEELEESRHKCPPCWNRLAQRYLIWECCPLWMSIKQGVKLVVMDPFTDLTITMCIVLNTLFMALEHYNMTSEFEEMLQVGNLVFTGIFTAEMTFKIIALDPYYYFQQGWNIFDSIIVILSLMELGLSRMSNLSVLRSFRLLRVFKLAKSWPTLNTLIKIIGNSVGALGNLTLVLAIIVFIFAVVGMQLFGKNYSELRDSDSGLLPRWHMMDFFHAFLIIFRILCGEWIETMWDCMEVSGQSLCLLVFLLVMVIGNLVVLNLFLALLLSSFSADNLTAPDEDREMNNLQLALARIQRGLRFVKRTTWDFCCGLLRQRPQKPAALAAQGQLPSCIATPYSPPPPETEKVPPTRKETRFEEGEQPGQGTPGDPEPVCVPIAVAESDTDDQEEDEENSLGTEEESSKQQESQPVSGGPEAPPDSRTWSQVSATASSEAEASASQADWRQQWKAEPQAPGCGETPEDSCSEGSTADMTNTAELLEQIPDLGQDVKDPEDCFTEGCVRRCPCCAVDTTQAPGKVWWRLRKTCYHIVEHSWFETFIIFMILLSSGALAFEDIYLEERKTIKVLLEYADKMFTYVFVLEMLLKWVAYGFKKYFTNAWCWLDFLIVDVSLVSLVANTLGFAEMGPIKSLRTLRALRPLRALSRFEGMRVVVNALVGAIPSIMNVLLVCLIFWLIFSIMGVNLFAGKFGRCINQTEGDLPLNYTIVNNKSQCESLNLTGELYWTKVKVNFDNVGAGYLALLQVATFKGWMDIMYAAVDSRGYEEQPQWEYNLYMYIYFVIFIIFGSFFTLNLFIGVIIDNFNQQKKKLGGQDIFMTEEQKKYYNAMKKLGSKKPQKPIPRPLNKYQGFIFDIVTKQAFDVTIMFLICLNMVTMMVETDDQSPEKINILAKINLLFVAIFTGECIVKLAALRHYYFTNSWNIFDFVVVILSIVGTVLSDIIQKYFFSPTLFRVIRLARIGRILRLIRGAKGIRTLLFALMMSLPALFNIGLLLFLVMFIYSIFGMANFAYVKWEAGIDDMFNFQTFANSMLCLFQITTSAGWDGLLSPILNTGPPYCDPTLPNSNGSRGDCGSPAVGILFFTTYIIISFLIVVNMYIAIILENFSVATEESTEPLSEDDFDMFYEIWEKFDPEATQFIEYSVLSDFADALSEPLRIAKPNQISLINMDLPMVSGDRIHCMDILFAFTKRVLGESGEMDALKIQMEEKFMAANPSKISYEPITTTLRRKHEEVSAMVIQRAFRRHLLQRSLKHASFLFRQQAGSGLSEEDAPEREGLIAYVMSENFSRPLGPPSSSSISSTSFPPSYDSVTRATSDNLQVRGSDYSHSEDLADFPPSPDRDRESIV
Experiment: Whole-cell patch clamp, single voltage-pulse protocol (peak INa, conductance, fast inactivation) in transiently transfected HEK293 cells
Type: cell-based
Settings: 10 μM
property.measured: fast inactivation onset time constant FI −30 mV (ms)

| compound | tested.system | measured.value |
| --- | --- | --- |
| CN(C)[C@@H](CNC(=O)c1ccc2c(c1)=NC(=O)C(=O)N=2)c1ccco1 [ZINC40014265] | WT Nav1.5-α subunits (Homo sapiens) | 0.63 |
| CCc1ccccc1NS(=O)(=O)c1ccc2c(c1)=NC(=O)N=2 [ZINC64470737] | WT Nav1.5-α subunits (Homo sapiens) | 0.66 |
| C=CCNS(=O)(=O)c1ccc2c(c1)=NC(=O)N=2 [ZINC39699427] | WT Nav1.5-α subunits (Homo sapiens) | 0.54 |
| Cc1cc(F)ccc1NS(=O)(=O)c1ccc2c(c1)=NC(=O)N=2 [ZINC64470745] | WT Nav1.5-α subunits (Homo sapiens) | 0.66 |
| COc1cccc(NS(=O)(=O)c2ccc3c(c2)=NC(=O)N=3)c1 [ZINC64470729] | WT Nav1.5-α subunits (Homo sapiens) | 0.70 |
| O=C1N=c2ccc(C(=O)NCc3ccco3)cc2=NC1=O [ZINC38767171] | WT Nav1.5-α subunits (Homo sapiens) | 0.71 |
